Reference for the values: patent US20230295119A1

# target or test system: human JAK2 (Homo sapiens (Human), UniProt O60674)
# Sequence (O60674 whole entry): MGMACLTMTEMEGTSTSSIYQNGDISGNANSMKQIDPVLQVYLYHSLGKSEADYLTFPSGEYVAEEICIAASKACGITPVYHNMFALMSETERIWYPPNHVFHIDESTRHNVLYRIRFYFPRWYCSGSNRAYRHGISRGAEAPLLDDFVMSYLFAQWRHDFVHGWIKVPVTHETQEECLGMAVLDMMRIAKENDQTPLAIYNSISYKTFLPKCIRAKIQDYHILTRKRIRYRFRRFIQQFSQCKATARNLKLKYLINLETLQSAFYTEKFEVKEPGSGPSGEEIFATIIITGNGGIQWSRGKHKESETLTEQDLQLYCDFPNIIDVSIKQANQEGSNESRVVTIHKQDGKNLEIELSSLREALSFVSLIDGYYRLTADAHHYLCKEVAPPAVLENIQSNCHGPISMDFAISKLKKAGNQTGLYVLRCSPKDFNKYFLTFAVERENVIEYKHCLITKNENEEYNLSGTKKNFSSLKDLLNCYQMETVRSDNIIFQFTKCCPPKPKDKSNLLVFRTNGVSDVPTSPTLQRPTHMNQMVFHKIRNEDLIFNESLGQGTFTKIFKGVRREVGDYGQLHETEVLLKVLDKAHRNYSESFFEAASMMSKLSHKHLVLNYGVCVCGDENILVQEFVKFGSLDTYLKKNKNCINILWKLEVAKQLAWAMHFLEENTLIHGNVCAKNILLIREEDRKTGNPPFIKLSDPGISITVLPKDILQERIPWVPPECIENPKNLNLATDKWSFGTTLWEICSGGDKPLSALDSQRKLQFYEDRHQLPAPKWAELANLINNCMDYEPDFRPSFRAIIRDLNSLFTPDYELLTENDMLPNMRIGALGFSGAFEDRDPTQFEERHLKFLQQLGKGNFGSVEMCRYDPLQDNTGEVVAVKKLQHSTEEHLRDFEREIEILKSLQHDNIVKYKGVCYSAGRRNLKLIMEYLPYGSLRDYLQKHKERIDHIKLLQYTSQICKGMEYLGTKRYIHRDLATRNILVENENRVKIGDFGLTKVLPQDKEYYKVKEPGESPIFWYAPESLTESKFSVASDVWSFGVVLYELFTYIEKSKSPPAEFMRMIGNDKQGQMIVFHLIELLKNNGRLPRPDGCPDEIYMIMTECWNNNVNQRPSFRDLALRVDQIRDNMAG
pIC50: −log10 of the molar value.
attribute measured: pIC50

# example entries with known answers
{"compound": "CCC(=O)c1cnc(Nc2ccc(-c3ccc[nH]c3=O)cn2)cc1Nc1cccc(-c2ncn(C)n2)c1OC [Compound 15W]", "pIC50": "6.30 to 7.30"}
{"compound": "CCC(=O)c1cnc(Nc2cnc(O[C@H]3CN(C)C[C@H]3F)cn2)cc1Nc1cccc(-c2ncn(C)n2)c1OC", "pIC50": "≤ 6.30"}
{"compound": "CCC(=O)c1cnc(Nc2ccc(CN(C)C3CC3)cn2)cc1Nc1cccc(-c2ncn(C)n2)c1OC", "pIC50": "≤ 6.30"}

In: Fill in pIC50 for CCC(=O)c1cnc(Nc2ccc(S(C)(=O)=O)cn2)cc1Nc1ccc(C(=O)N2CCCC2)cc1OC [Compound 13W] tested with human JAK2 (Homo sapiens (Human), UniProt O60674).
Out: 6.30 to 7.30

In: Fill in pIC50 for CCC(=O)c1cnc(Nc2cnc(CCNC)cn2)cc1Nc1cccc(-c2ncn(C)n2)c1OC [Compound 11H] tested with human JAK2 (Homo sapiens (Human), UniProt O60674).
Out: ≤ 6.30
